- TEST TARGET: UniProt:Q9Y5N1
PARAMETER MEASURED: Ki (nM)
# value in nM; strip the unit string

Param item = CN(C)CCCC1(c2ccc(F)cc2)OCc2cc(CN3CCCCC3)ccc21 (stereo not shown) ; retrieve measured Ki. 20

----------
- TEST TARGET: H1 (Homo sapiens, UniProt P35367)
- Sequence (P35367 whole entry): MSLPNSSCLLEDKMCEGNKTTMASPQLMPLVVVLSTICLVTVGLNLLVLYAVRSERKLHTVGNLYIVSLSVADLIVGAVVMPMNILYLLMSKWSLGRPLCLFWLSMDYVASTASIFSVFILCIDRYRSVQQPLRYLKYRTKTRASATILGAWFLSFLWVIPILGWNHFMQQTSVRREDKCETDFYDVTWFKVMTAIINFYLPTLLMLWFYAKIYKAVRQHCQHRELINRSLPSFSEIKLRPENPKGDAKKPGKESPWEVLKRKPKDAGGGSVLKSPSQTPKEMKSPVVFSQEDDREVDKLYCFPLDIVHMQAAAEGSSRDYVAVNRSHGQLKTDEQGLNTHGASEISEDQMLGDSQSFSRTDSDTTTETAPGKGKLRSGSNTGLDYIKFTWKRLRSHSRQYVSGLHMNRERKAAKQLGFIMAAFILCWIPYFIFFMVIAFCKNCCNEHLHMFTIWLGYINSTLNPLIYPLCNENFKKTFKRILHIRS
- RUN DESCRIPTION: Histamine H1 receptor binding (NIMH PDSP)
- EXPERIMENTAL CONTEXT: H1 receptor subtype; read-out: Ki
PARAMETER MEASURED: Ki
// return the numeric value with its unit appended

What Ki value was documented for this molecule, CN(C)CCCC1(c2ccc(F)cc2)OCc2cc(CN3CCN(C)CC3)ccc21 (stereo not shown) ? 144 nM
